Test summary: Pharmacokinetic test in rats
Format: in vivo, male SD rats
Test settings: rat, plasma, oral gavage administration, 10 mg/kg
Protocol: Rat pharmacokinetic experiments were performed using male SD rats, 180-220g, provided by Beijing Vital River Laboratory Animal Technology Co., Ltd. 3 rats that were fasted overnight were taken, and administered orally by gavage (10 mg/kg). […] The main pharmacokinetic parameters were analyzed using WinNonlin8.2 software for non compartmental model analysis. […]
Think of 400 ng/mL as a floor: if Cmax stands on it or above, it is Yes; beneath it, No.

The following compounds have reported results that may help.
C=C(C)C(=O)Nc1ccc(-c2c(-c3ccc(N=S4(=O)CCCC4)cc3)c3c(N)ncnc3n2C)c(F)c1: No
C=C(C)C(=O)Nc1ccc(-c2c(-c3ccc(N=S(=O)(CC)CC)cc3)c3c(N)ncnc3n2C)c(F)c1: Yes

Quick check, Cmax >= 400 ng/mL? C=C(C)C(=O)Nc1ccc(-c2c(-c3ccc(N=S4(=O)CCC4)cc3)c3c(N)ncnc3n2C)c(F)c1
No

Quick check, Cmax >= 400 ng/mL? C=C(C)C(=O)Nc1ccc(-c2c(-c3ccc(N=S(=O)(N(C)C)C(F)(F)F)c(F)c3)c3c(N)ncnc3n2C)cc1 (stereo not drawn)
No

Quick check, Cmax >= 400 ng/mL? C=C(C)C(=O)Nc1ccc(-c2c(-c3ccc(N=S4(=O)CC(C)(C)C4)cc3)c3c(N)ncnc3n2C)c(F)c1
Yes

Quick check, Cmax >= 400 ng/mL? [2H]C([2H])([2H])n1c(-c2ccc(NC(=O)C(=C)C)cc2F)c(-c2ccc(N=S3(=O)CCCC3)cc2)c2c(N)ncnc21
Yes
